Source of measurements: paper PMC8309005

- EXPERIMENTAL_DETAILS: Caco-2 permeability and efflux study
- Format: in vitro ADME, human
- CONDITION_INFO: human, Caco-2; read-out: Efflux ratio (Papp B-A/Papp A-B)
Attribute: efflux ratio

Worked cases, answers included:
CN(C)c1cc[n+](CCCCCCCCCCCC[n+]2ccc(N(C)C)cc2)cc1 = > 8.6
CN(C)c1cc[n+](CCCCCCCCCCCCCC[n+]2ccc(N(C)C)cc2)cc1.[Br-].[Br-] [CK14, reference compound] = > 87
CN(C)c1cc[n+](CCCCCCCCCCCCCC[n+]2ccc(N3CCNCC3)cc2)cc1 = > 2.6

With those in mind, consider the next molecule.
Lookup: Give the measured efflux ratio of CC(=O)NCCCCC(NC(=O)OC(C)(C)C)C(=O)N1CCN(c2cc[n+](CCCCCCCCCCCCCC[n+]3ccc(N(C)C)cc3)cc2)CC1 (stereo not shown) .
Found: > 2.8

###

- EXPERIMENTAL_DETAILS: Matrix stability assay in fasted state simulated gastric fluid (FaSSGF)
- Type: in vitro ADME
- CONDITION_INFO: FaSSGF
MEASUREMENT_KIND: Matrix Stability: Remaining % (%)

Worked cases, answers included:
CN(C)c1cc[n+](CCCCCCCCCCCCCC[n+]2ccc(N(C)C)cc2)cc1.[Br-].[Br-] [CK14, reference compound] = 95
CN(C)c1cc[n+](CCCCCCCCCCCCCC[n+]2ccc(N3CCNCC3)cc2)cc1 [CK146] = 92

[A] CC(=O)NCCCCC(NC(=O)OC(C)(C)C)C(=O)N1CCN(c2cc[n+](CCCCCCCCCCCCCC[n+]3ccc(N(C)C)cc3)cc2)CC1 (stereo not shown) [CK145]
[B] CN(C)c1cc[n+](CCCCCCCCCCCC[n+]2ccc(N(C)C)cc2)cc1 [ICL-CCIC-0019]
Lookup: Hello, I am sorting some records. Could you say if A or B has the smaller Matrix Stability: Remaining % value? Give the label under which the chosen entry appears.
Found: A
(A: 74%, B: 117%)

###

- EXPERIMENTAL_DETAILS: Human microsomal metabolic stability assay
- Assay type: in vitro ADME
- CONDITION_INFO: scaled from microsomal clearance (liver weight, microsomes per liver, liver blood flow), human
MEASUREMENT_KIND: Predicted in vivo clearance

Worked cases, answers included:
CN(C)c1cc[n+](CCCCCCCCCCCCCC[n+]2ccc(N3CCNCC3)cc2)cc1 = <10 mL/min/kg
CN(C)c1cc[n+](CCCCCCCCCCCCCC[n+]2ccc(N(C)C)cc2)cc1.[Br-].[Br-] [CK14, reference compound] = <10 mL/min/kg
CC(=O)NCCCCC(NC(=O)OC(C)(C)C)C(=O)N1CCN(c2cc[n+](CCCCCCCCCCCCCC[n+]3ccc(N(C)C)cc3)cc2)CC1 (stereo not shown) = 19 mL/min/kg

Lookup: Give the measured Predicted in vivo clearance of `CN(C)c1cc[n+](CCCCCCCCCCCC[n+]2ccc(N(C)C)cc2)cc1` .
Found: <10 mL/min/kg

###

- EXPERIMENTAL_DETAILS: Kinetic solubility assay
- Format: physicochemical
- CONDITION_INFO: 0.1 M PBS (2% DMSO), aqueous buffer, kinetic from dmso stock; read-out: Kinetic Solubility: Solubility
MEASUREMENT_KIND: solubility kinetic (µM)

CN(C)c1cc[n+](CCCCCCCCCCCC[n+]2ccc(N(C)C)cc2)cc1 = 161
CC(=O)NCCCCC(NC(=O)OC(C)(C)C)C(=O)N1CCN(c2cc[n+](CCCCCCCCCCCCCC[n+]3ccc(N(C)C)cc3)cc2)CC1 (stereo not shown) = 178
CN(C)c1cc[n+](CCCCCCCCCCCCCC[n+]2ccc(N(C)C)cc2)cc1.[Br-].[Br-] [CK14, reference compound] = 154
CN(C)c1cc[n+](CCCCCCCCCCCCCC[n+]2ccc(N3CCNCC3)cc2)cc1 = 158
